- protocol-text: Volume of distribution in rat
- Format: ADME, organism-based
- condition-label: in vivo
observed-property: Vd

Query Vd for `N#Cc1cc(F)cc(-n2nnc(-c3ccccn3)n2)c1`
1.1 L/kg

Query Vd for `N#Cc1cccc(-n2ccc(-c3ccccn3)c2)c1`
3.6 L/kg

Query Vd for `N#Cc1cccc(-n2ncc(-c3ccccn3)n2)c1`
1.1 L/kg

Query Vd for `N#Cc1cccc(-c2cnn(-c3ccccn3)n2)c1`
1 L/kg

Query Vd for `N#Cc1cccc(-n2cc(-c3ccccn3)cn2)c1`
3.7 L/kg

---

Exercise: state measured pIC50 for each of the compounds provided.
- measured-on: Metabotropic glutamate receptor 5 (Homo sapiens, UniProt P41594)
- Sequence (P41594 whole entry): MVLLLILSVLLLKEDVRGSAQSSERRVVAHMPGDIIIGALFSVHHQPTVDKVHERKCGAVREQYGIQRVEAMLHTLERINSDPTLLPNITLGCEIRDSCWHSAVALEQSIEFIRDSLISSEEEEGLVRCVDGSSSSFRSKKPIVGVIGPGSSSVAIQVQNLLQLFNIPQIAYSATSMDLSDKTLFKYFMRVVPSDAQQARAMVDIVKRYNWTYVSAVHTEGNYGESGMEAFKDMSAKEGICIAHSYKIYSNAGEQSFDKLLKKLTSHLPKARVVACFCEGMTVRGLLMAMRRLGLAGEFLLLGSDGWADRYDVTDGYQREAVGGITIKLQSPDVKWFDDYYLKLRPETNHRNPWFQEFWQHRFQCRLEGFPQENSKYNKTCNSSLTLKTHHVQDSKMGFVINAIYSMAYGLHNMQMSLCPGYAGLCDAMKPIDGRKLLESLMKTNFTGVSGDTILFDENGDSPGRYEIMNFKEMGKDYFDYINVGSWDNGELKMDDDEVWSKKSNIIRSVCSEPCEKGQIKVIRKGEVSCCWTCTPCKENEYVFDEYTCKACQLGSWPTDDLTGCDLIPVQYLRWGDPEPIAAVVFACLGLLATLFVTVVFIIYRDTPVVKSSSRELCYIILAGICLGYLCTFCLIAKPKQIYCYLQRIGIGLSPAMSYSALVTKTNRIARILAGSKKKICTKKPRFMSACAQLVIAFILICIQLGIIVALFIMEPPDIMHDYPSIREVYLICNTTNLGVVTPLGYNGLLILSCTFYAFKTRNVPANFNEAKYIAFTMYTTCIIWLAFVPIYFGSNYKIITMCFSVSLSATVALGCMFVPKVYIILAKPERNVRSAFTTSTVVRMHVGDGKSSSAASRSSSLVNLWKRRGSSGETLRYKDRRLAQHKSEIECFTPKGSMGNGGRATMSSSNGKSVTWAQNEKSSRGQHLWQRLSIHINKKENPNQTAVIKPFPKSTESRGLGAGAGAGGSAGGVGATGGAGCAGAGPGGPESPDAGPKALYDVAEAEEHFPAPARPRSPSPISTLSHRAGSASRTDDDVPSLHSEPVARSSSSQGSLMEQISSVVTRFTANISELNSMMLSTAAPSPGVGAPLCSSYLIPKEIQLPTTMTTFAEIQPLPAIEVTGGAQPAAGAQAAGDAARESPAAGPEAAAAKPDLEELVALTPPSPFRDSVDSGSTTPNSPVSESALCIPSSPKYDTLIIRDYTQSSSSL
- protocol-text: Inhibitory concentration towards human glutamate receptor 5 in calcium flux assay
As a rule, pIC50 stands for the negative log10 of the concentration, concentration in M.

Query pIC50 for `N#Cc1cccc(-c2nnn(-c3ccccn3)n2)c1`
6.57

Query pIC50 for `N#Cc1cccc(-c2cnn(-c3ccccn3)c2)c1`
6.05

Query pIC50 for `N#Cc1cccc(-c2cnn(-c3ccccn3)n2)c1`
6.68

Query pIC50 for `N#Cc1cccc(-n2cnc(-c3ccccn3)n2)c1`
6.16

Query pIC50 for `N#Cc1cccc(-n2cnc(-c3ccccn3)c2)c1`
5.94

Query pIC50 for `N#Cc1cc(F)cc(-n2nnc(-c3ccccn3)n2)c1`
8.40

Query pIC50 for `N#Cc1cccc(-n2ncc(-c3ccccn3)n2)c1`
7.10

Query pIC50 for `N#Cc1cccc(-c2ccn(-c3ccccn3)n2)c1`
5.44

Query pIC50 for `N#Cc1cccc(-n2cc(-c3ccccn3)nn2)c1`
6.01

Query pIC50 for `N#Cc1cccc(-n2ccc(-c3ccccn3)n2)c1`
6.36

Query pIC50 for `N#Cc1cccc(-n2nnc(-c3ccccn3)n2)c1`
7.15

---

- protocol-text: Half life in rat
- Type: ADME
- condition-label: in vivo
Exercise: state measured half-life for each of the compounds provided.

Query half-life for `N#Cc1cccc(-n2ccc(-c3ccccn3)c2)c1`
1.7 h

Query half-life for `N#Cc1cccc(-n2cc(-c3ccccn3)cn2)c1`
5.5 h

Query half-life for `N#Cc1cccc(-n2ncc(-c3ccccn3)n2)c1`
2.5 h

Query half-life for `N#Cc1cccc(-c2cnn(-c3ccccn3)n2)c1`
1.7 h

---

observed-property: Ki (nM)
Enter your answer as a number in nM; do not include the unit.

Retrieve Ki on Metabotropic glutamate receptor 5 (Rattus norvegicus, UniProt P31424); query `N#Cc1cccc(-n2ncc(-c3ccccn3)n2)c1`
Sequence (P31424 whole entry): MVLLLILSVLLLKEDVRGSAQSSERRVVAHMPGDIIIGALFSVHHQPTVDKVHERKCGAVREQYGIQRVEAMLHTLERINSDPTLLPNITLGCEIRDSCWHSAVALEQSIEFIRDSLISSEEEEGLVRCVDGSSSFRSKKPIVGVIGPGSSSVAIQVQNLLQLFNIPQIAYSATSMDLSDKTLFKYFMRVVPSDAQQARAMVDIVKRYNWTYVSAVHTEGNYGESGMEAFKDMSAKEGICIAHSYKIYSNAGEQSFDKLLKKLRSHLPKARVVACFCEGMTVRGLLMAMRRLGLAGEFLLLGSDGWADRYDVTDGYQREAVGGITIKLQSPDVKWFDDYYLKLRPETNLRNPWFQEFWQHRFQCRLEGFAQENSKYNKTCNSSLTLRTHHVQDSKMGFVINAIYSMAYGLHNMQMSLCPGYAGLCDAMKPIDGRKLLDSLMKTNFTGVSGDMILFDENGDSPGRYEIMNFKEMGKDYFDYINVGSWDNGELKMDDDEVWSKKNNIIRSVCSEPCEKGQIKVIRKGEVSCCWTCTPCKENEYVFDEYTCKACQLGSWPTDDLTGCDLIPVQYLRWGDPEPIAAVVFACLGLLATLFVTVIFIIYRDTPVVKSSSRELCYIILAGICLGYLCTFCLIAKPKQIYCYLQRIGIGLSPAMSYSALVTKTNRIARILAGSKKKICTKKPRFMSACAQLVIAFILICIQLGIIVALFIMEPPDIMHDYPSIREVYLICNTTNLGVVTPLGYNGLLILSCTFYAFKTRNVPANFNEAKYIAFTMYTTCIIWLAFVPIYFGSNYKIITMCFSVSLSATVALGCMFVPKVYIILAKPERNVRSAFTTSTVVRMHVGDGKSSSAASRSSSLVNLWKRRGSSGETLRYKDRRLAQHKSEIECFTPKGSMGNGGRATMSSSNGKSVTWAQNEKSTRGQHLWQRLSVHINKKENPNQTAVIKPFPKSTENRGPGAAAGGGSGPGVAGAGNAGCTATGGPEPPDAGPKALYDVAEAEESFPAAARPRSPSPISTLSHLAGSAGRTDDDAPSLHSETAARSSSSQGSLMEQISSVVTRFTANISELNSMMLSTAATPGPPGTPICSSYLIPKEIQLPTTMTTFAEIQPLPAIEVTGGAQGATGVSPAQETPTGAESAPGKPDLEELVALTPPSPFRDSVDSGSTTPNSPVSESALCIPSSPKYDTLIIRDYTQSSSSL
300

Retrieve Ki on Metabotropic glutamate receptor 5 (Rattus norvegicus, UniProt P31424); query `N#Cc1cc(F)cc(-n2nnc(-c3ccccn3)n2)c1`
10

---

- protocol-text: Plasma level after 1 hr following 3 mg/kg dose administered intraperitoneally
- Format: ADME, organism-based
- Set-up: dose 3 mg/kg, route intraperitoneal
- condition-label: rat, ip, read-out: Plasma Level
observed-property: concentration at 1 h (nM)
Enter your answer as a number in nM; do not include the unit.

Query concentration at 1 h for `N#Cc1cc(F)cc(-n2nnc(-c3ccccn3)n2)c1`
2700

---

- protocol-text: Plasma clearance in rat
- Assay type: ADME, organism-based
- condition-label: read-out: Clp
observed-property: clearance (mL/min/kg)
Enter your answer as a number in mL/min/kg; do not include the unit.

Query clearance for `N#Cc1cc(F)cc(-n2nnc(-c3ccccn3)n2)c1`
16.9

Query clearance for `N#Cc1cccc(-n2ncc(-c3ccccn3)n2)c1`
15.7

Query clearance for `N#Cc1cccc(-n2ccc(-c3ccccn3)c2)c1`
32.5

Query clearance for `N#Cc1cccc(-n2nnc(-c3ccccn3)n2)c1`
32.9

Query clearance for `N#Cc1cccc(-c2cnn(-c3ccccn3)n2)c1`
15.1

Query clearance for `N#Cc1cccc(-n2cc(-c3ccccn3)cn2)c1`
9.7

---

- protocol-text: Bioavailability in rat
- Format: ADME, organism-based
- condition-label: in vivo
observed-property: bioavailability (%)
Enter your answer as a number in %; do not include the unit.

Query bioavailability for `N#Cc1cccc(-n2ccc(-c3ccccn3)c2)c1`
4

Query bioavailability for `N#Cc1cccc(-n2cc(-c3ccccn3)cn2)c1`
3

Query bioavailability for `N#Cc1cccc(-n2ncc(-c3ccccn3)n2)c1`
3

Query bioavailability for `N#Cc1cc(F)cc(-n2nnc(-c3ccccn3)n2)c1`
26

Query bioavailability for `N#Cc1cccc(-c2cnn(-c3ccccn3)n2)c1`
13

---

- measured-on: UniProtKB P31424
Exercise: state measured pKi for each of the molecules provided.
As a rule, pKi stands for the negative log10 of the concentration, concentration in M.

Query pKi for `N#Cc1cccc(-n2ccc(-c3ccccn3)n2)c1`
6.28

Query pKi for `N#Cc1cccc(-n2cc(-c3ccccn3)cn2)c1`
6.60

Query pKi for `N#Cc1cccc(-c2nnn(-c3ccccn3)n2)c1`
6.35

Query pKi for `N#Cc1cccc(-n2nnc(-c3ccccn3)n2)c1`
6.72

---

- protocol-text: Maximum concentration in rat when administered at 10 mg/kg perorally
- Format: ADME, organism-based
- Parameters: dose 10 mg/kg, route oral
- condition-label: in vivo, po
Threshold rule: Cmax greater than or equal to 2000 nM is True; below that, False.

Exam item: decide whether the reported Cmax for `N#Cc1cc(F)cc(-n2nnc(-c3ccccn3)n2)c1` is at least 2000 nM.
True

Exam item: decide whether the reported Cmax for `N#Cc1cccc(-n2ccc(-c3ccccn3)c2)c1` is at least 2000 nM.
False

Exam item: decide whether the reported Cmax for `N#Cc1cccc(-c2cnn(-c3ccccn3)n2)c1` is at least 2000 nM.
True

Exam item: decide whether the reported Cmax for `N#Cc1cccc(-n2ncc(-c3ccccn3)n2)c1` is at least 2000 nM.
False

Exam item: decide whether the reported Cmax for `N#Cc1cccc(-n2cc(-c3ccccn3)cn2)c1` is at least 2000 nM.
False

Exam item: decide whether the reported Cmax for `N#Cc1cccc(-n2nnc(-c3ccccn3)n2)c1` is at least 2000 nM.
True

---

Exercise: state measured pIC50 for each of the compounds provided.
- measured-on: Metabotropic glutamate receptor 5 (Homo sapiens, UniProt P41594)
- protocol-text: Inhibitory concentration towards human glutamate receptor 5 in calcium flux assay
As a rule, pIC50 stands for the negative log10 of the concentration, concentration in M.

Query pIC50 for `N#Cc1cccc(-c2ccn(-c3ccccn3)c2)c1`
5.34

Query pIC50 for `N#Cc1cccc(-c2ncn(-c3ccccn3)n2)c1`
5.21

Query pIC50 for `N#Cc1cccc(-n2cc(-c3ccccn3)cn2)c1`
6.85

Query pIC50 for `N#Cc1cccc(-n2ccc(-c3ccccn3)c2)c1`
6.72

---

- measured-on: Metabotropic glutamate receptor 5 (Rattus norvegicus, UniProt P31424)
pKi: −log10 of the molar value.
Exercise: state measured pKi for each of the compounds provided.

Query pKi for `N#Cc1cccc(-c2cn(-c3ccccn3)cn2)c1`
< 6.22

Query pKi for `N#Cc1cccc(-n2cnc(-c3ccccn3)n2)c1`
< 6.22

Query pKi for `N#Cc1cccc(-c2cn(-c3ccccn3)nn2)c1`
< 6.20
